Tested on: C. neoformans
Conditions: 72 h
Non-standard residues stand in square brackets, D forms with d. Residues, ends and D or L forms follow the SMILES beside them. Ava = NCCCCC(=O)O; βAla = NCCC(=O)O
Recorded MIC C. neoformans values for a group of compounds are listed next.
Give a bare numeral; the unit µg/mL is implied.

Ask: Please provide the recorded MIC C. neoformans for N=C(N)NCCC[C@@H](N)C(=O)N[C@@H](CCCNC(=N)N)C(=O)N[C@H](CCCNC(=N)N)C(=O)NCCCCC(=O)N[C@H](CCCNC(=N)N)C(=O)N[C@@H](CCCNC(=N)N)C(=O)N[C@H](CCCNC(=N)N)C(=O)NCCCCC(=O)N[C@H](CCCNC(=N)N)C(=O)N[C@@H](CCCNC(=N)N)C(=O)NCCCCC(=O)N[C@H](CCCNC(=N)N)C(=O)N[C@@H](CCCNC(=N)N)C(N)=O [SEQ ID NO: 27, rRr-(Ava)-rRr-(Ava)-rR-(Ava)-rR-NH2] (H-[dR]R[dR][Ava][dR]R[dR][Ava][dR]R[Ava][dR]R-NH2) , tested on C. neoformans.
Result: 8

Ask: Quick one: N=C(N)NCCC[C@@H](N)C(=O)N[C@@H](CCCNC(=N)N)C(=O)N[C@H](CCCNC(=N)N)C(=O)NCCC(=O)N[C@H](CCCNC(=N)N)C(=O)N[C@@H](CCCNC(=N)N)C(=O)N[C@H](CCCNC(=N)N)C(=O)NCCC(=O)N[C@H](CCCNC(=N)N)C(=O)N[C@@H](CCCNC(=N)N)C(=O)N[C@H](CCCNC(=N)N)C(=O)N[C@@H](CCCNC(=N)N)C(=O)NCCC(=O)O [SEQ ID NO: 17, rRr-(Apr)-rRr-(Apr)-rRrR-(Apr)] (H-[dR]R[dR][βAla][dR]R[dR][βAla][dR]R[dR]R[βAla]-OH)
Result: 64

Ask: Quick one: N=C(N)NCCC[C@@H](N)C(=O)N[C@@H](CCCNC(=N)N)C(=O)NCCCCC(=O)N[C@H](CCCNC(=N)N)C(=O)N[C@@H](CCCNC(=N)N)C(=O)NCCCCC(=O)N[C@H](CCCNC(=N)N)C(=O)N[C@@H](CCCNC(=N)N)C(=O)N[C@H](CCCNC(=N)N)C(=O)NCCCCC(=O)N[C@H](CCCNC(=N)N)C(=O)N[C@@H](CCCNC(=N)N)C(=O)N[C@H](CCCNC(=N)N)C(N)=O [SEQ ID NO: 26, rR-(Ava)-rR-(Ava)-rRr-(Ava)-rRr-NH2] (H-[dR]R[Ava][dR]R[Ava][dR]R[dR][Ava][dR]R[dR]-NH2)
Result: 16

Ask: Quick one: N=C(N)NCCC[C@@H](N)C(=O)N[C@@H](CCCNC(=N)N)C(=O)N[C@H](CCCNC(=N)N)C(=O)NCCCCC(=O)N[C@H](CCCNC(=N)N)C(=O)N[C@@H](CCCNC(=N)N)C(=O)NCCCCC(=O)N[C@H](CCCNC(=N)N)C(=O)N[C@@H](CCCNC(=N)N)C(=O)N[C@H](CCCNC(=N)N)C(=O)NCCCCC(=O)N[C@H](CCCNC(=N)N)C(=O)N[C@@H](CCCNC(=N)N)C(N)=O [SEQ ID NO: 24, rRr-(Ava)-rR-(Ava)-rRr-(Ava)-rR-NH2] (H-[dR]R[dR][Ava][dR]R[Ava][dR]R[dR][Ava][dR]R-NH2)
Result: 16

Ask: Quick one: N=C(N)NCCC[C@@H](N)C(=O)N[C@@H](CCCNC(=N)N)C(=O)N1CCC[C@H]1C(=O)N[C@H](CCCNC(=N)N)C(=O)N[C@@H](CCCNC(=N)N)C(=O)N[C@H](CCCNC(=N)N)C(=O)N1CCC[C@H]1C(=O)N[C@H](CCCNC(=N)N)C(=O)N[C@@H](CCCNC(=N)N)C(=O)N1CCC[C@H]1C(=O)N[C@H](CCCNC(=N)N)C(=O)N[C@@H](CCCNC(=N)N)C(=O)N[C@H](CCCNC(=N)N)C(N)=O [SEQ ID NO: 72, rR-P-rRr-P-rR-P-rRr-NH2] (H-[dR]RP[dR]R[dR]P[dR]RP[dR]R[dR]-NH2)
Result: 16

Ask: Quick one: N=C(N)NCCC[C@@H](N)C(=O)N[C@@H](CCCNC(=N)N)C(=O)N[C@H](CCCNC(=N)N)C(=O)N1CCC[C@H]1C(=O)N[C@H](CCCNC(=N)N)C(=O)N[C@@H](CCCNC(=N)N)C(=O)N[C@H](CCCNC(=N)N)C(=O)N1CCC[C@H]1C(=O)N[C@H](CCCNC(=N)N)C(=O)N[C@@H](CCCNC(=N)N)C(=O)N1CCC[C@H]1C(=O)N[C@H](CCCNC(=N)N)C(=O)N[C@@H](CCCNC(=N)N)C(N)=O [SEQ ID NO: 69, rRr-P-rRr-P-rR-P-rR-NH2] (H-[dR]R[dR]P[dR]R[dR]P[dR]RP[dR]R-NH2)
Result: 8

Ask: Quick one: N=C(N)NCCC[C@@H](N)C(=O)N[C@@H](CCCNC(=N)N)C(=O)N[C@H](CCCNC(=N)N)C(=O)N1CCC[C@H]1C(=O)N[C@H](CCCNC(=N)N)C(=O)N[C@@H](CCCNC(=N)N)C(=O)N1CCC[C@H]1C(=O)N[C@H](CCCNC(=N)N)C(=O)N[C@@H](CCCNC(=N)N)C(=O)N[C@H](CCCNC(=N)N)C(=O)N1CCC[C@H]1C(=O)N[C@H](CCCNC(=N)N)C(=O)N[C@@H](CCCNC(=N)N)C(N)=O [SEQ ID NO: 68, rRr-P-rR-P-rRr-P-rR-NH2] (H-[dR]R[dR]P[dR]RP[dR]R[dR]P[dR]R-NH2)
Result: 8

Ask: Quick one: N=C(N)NCCC[C@@H](N)C(=O)N[C@@H](CCCNC(=N)N)C(=O)N[C@H](CCCNC(=N)N)C(=O)N1CCC[C@H]1C(=O)N[C@H](CCCNC(=N)N)C(=O)N[C@@H](CCCNC(=N)N)C(=O)N1CCC[C@H]1C(=O)N[C@H](CCCNC(=N)N)C(=O)N[C@@H](CCCNC(=N)N)C(=O)N1CCC[C@H]1C(=O)N[C@H](CCCNC(=N)N)C(=O)N[C@@H](CCCNC(=N)N)C(=O)N[C@H](CCCNC(=N)N)C(N)=O [SEQ ID NO: 70, rRr-P-rR-P-rR-P-rRr-NH2] (H-[dR]R[dR]P[dR]RP[dR]RP[dR]R[dR]-NH2)
Result: 8
